IC50 values recorded for Mothers against decapentaplegic homolog 3 (Homo sapiens)
reported metric: IC50 (µM)

CCN(CC)P(=O)(NC(=O)C(Cl)(Cl)Cl)N(CC)CC; 14.1
CC1(C)CC(=O)C(C2(O)C(=O)NC(=O)NC2=O)C(=O)C1; 2.3
